Molecular target: Beta-secretase 1 (Homo sapiens)
Sequence (P56817 whole entry): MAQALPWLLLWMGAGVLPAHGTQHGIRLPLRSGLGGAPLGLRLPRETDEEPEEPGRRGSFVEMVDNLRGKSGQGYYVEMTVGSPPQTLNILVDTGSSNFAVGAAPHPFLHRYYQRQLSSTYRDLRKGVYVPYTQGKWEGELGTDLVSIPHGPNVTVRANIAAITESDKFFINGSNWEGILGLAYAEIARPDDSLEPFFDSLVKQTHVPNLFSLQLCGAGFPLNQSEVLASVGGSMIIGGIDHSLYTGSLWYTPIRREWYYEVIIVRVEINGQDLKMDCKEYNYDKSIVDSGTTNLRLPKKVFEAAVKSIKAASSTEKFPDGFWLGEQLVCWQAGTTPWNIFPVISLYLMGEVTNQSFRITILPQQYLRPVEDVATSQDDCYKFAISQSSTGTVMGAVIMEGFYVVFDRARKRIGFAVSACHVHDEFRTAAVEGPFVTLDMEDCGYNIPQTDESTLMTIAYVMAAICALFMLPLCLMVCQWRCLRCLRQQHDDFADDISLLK
Test: Inhibition of human BACE1 in HEK293 cells stably co-transfected with mutant APP(swAPP751) assessed as Amyloid beta 1-40 level after 24 hrs by ELISA
Format: cell-based
Endpoint Label: IC50 (nM)

CC(C)[C@H](NC(=O)[C@H](C)C[C@H](O)[C@H](COc1cc(F)cc(F)c1)NC(=O)c1cc(C(=O)N[C@H](C)c2ccccc2)cc(N(C)S(C)(=O)=O)c1)C(=O)NCc1ccccc1    160
CC(C)[C@H](NC(=O)[C@@H](C)C[C@H](O)[C@H](COc1cc(F)cc(F)c1)NC(=O)c1cc(C(=O)N[C@H](C)c2ccccc2)cc(N(C)S(C)(=O)=O)c1)C(=O)NCc1ccccc1    340

P = CC(C)[C@H](NC(=O)[C@H](C)C[C@H](O)[C@H](COCc1cc(F)cc(F)c1)NC(=O)c1cc(C(=O)N[C@H](C)c2ccccc2)cc(N(C)S(C)(=O)=O)c1)C(=O)NCc1ccccc1
Q = CC(C)[C@H](NC(=O)[C@H](C)C[C@H](O)[C@H](COCc1ccccc1)NC(=O)c1cc(C(=O)N[C@H](C)c2ccccc2)cc(N(C)S(C)(=O)=O)c1)C(=O)NCc1ccccc1
Which has the smaller recorded IC50, P or Q ? When you have decided, please share the label of that item.
Q
